Where these numbers come from: patent EP0308983A2

So I've got a bunch of compounds here, and I need their T₂ changed by (repeat measurement) values.
test: Paramagnetic relaxation properties in human plasma at 37°C; format: physicochemical; details: 37°C, repeat measurement 80 minutes later
One number for each entry, in %.

These solved cases illustrate the format of a correct answer.
# structure.notation, measurement.unit, T₂ changed by (repeat measurement)
rows = [
    ("N=C(N)NCCC[C@H](N)C(=O)O.N=C(N)NCCC[C@H](N)C(=O)O.O.O.[Cl-].[Cl-].[Mn+2]", "%", 22),
    ("CC[C@H](C)[C@H](N)C(=O)O.CC[C@H](C)[C@H](N)C(=O)O.O.O.[Cl-].[Cl-].[Mn+2]", "%", 8),
]

Continue with the compound presented below.
Report measured T₂ changed by (repeat measurement); entry is `N[C@@H](CS)C(=O)O.N[C@@H](CS)C(=O)O.O.O.[Cl-].[Cl-].[Mn+2]` 1

* * *

Provide the reported T₂ relaxivity in plasma, fold greater than GdDTPA of each item.
assay: Paramagnetic relaxation properties in human plasma at 37°C; assay type: physicochemical; settings: versus GdDTPA
Numbers only, in fold.

Reference set, count: 3
# structure.notation, assay.result
data = [
    ("N[C@@H](Cc1c[nH]cn1)C(=O)O.N[C@@H](Cc1c[nH]cn1)C(=O)O.O.O.[Cl-].[Cl-].[Mn+2]", 12.2),
    ("NCCCC[C@H](N)C(=O)O.NCCCC[C@H](N)C(=O)O.O.O.[Cl-].[Cl-].[Mn+2]", 11.8),
    ("CC(C)[C@H](N)C(=O)O.CC(C)[C@H](N)C(=O)O.O.O.[Cl-].[Cl-].[Mn+2]", 11.9),
]

Respectfully, I request T₂ relaxivity in plasma, fold greater than GdDTPA for each entry included below.
1. N[C@@H](CO)C(=O)O.N[C@@H](CO)C(=O)O.O.O.[Cl-].[Cl-].[Mn+2]
2. CSCC[C@H](N)C(=O)O.CSCC[C@H](N)C(=O)O.O.O.[Cl-].[Cl-].[Mn+2]
3. NC(=O)CC[C@H](N)C(=O)O.NC(=O)CC[C@H](N)C(=O)O.O.O.[Cl-].[Cl-].[Mn+2]
4. CC[C@H](C)[C@H](N)C(=O)O.CC[C@H](C)[C@H](N)C(=O)O.O.O.[Cl-].[Cl-].[Mn+2]
5. C[C@@H](O)[C@H](N)C(=O)O.C[C@@H](O)[C@H](N)C(=O)O.O.O.[Cl-].[Cl-].[Mn+2]

11.9
11.2
12.3
12.7
11.6

* * *

assay: Paramagnetic relaxation properties in water at 10 MHz (0.15T), RADX spin analyzer; format: physicochemical; details: in water, 10 MHz (0.15T); calculated from T₁ and concentration
Would you mind telling me the reported millimolar relaxivity for T₁ of each entry?
Could you write the number and then its unit?

A selection of reference data follows.
# structure.notation, millimolar relaxivity for T₁
records = [
    ("C[C@H](N)C(=O)O.C[C@H](N)C(=O)O.O.O.[Cl-].[Cl-].[Mn+2]", "9.81 mM⁻¹ s⁻¹"),
    ("NC(=O)CC[C@H](N)C(=O)O.NC(=O)CC[C@H](N)C(=O)O.O.O.[Cl-].[Cl-].[Mn+2]", "9.75 mM⁻¹ s⁻¹"),
    ("NCCCC[C@H](N)C(=O)O.NCCCC[C@H](N)C(=O)O.O.O.[Cl-].[Cl-].[Mn+2]", "9.55 mM⁻¹ s⁻¹"),
]

Would you mind giving millimolar relaxivity for T₁ for every compound in the list below?
1. N[C@@H](Cc1c[nH]cn1)C(=O)O.N[C@@H](Cc1c[nH]cn1)C(=O)O.O.O.[Cl-].[Cl-].[Mn+2]
2. CC[C@H](C)[C@H](N)C(=O)O.CC[C@H](C)[C@H](N)C(=O)O.O.O.[Cl-].[Cl-].[Mn+2]
3. O.O.O=C(O)[C@@H]1C[C@@H](O)CN1.O=C(O)[C@@H]1C[C@@H](O)CN1.[Cl-].[Cl-].[Mn+2]
4. N[C@@H](Cc1ccc(O)cc1)C(=O)O.N[C@@H](Cc1ccc(O)cc1)C(=O)O.O.O.[Cl-].[Cl-].[Mn+2]
5. N[C@@H](CS)C(=O)O.N[C@@H](CS)C(=O)O.O.O.[Cl-].[Cl-].[Mn+2]

["9.20 mM⁻¹ s⁻¹", "9.66 mM⁻¹ s⁻¹", "9.19 mM⁻¹ s⁻¹", "9.94 mM⁻¹ s⁻¹", "9.82 mM⁻¹ s⁻¹"]

* * *

What T₂ value was measured for each of the following?
test: Paramagnetic relaxation properties in human plasma at 37°C; format: physicochemical; conditions: 92 µM final concentration, 37°C
One number for each entry, in ms.

Solved cases below.
# structure.notation, T₂ value [ms]
data = [
    ("NCCCC[C@H](N)C(=O)O.NCCCC[C@H](N)C(=O)O.O.O.[Cl-].[Cl-].[Mn+2]", 192),
    ("N[C@@H](Cc1c[nH]cn1)C(=O)O.N[C@@H](Cc1c[nH]cn1)C(=O)O.O.O.[Cl-].[Cl-].[Mn+2]", 186),
    ("C[C@@H](O)[C@H](N)C(=O)O.C[C@@H](O)[C@H](N)C(=O)O.O.O.[Cl-].[Cl-].[Mn+2]", 196),
    ("N=C(N)NCCC[C@H](N)C(=O)O.N=C(N)NCCC[C@H](N)C(=O)O.O.O.[Cl-].[Cl-].[Mn+2]", 287),
    ("N[C@@H](CS)C(=O)O.N[C@@H](CS)C(=O)O.O.O.[Cl-].[Cl-].[Mn+2]", 190),
    ("CSCC[C@H](N)C(=O)O.CSCC[C@H](N)C(=O)O.O.O.[Cl-].[Cl-].[Mn+2]", 202),
]

Next item in the queue.
Item `CC(C)[C@H](N)C(=O)O.CC(C)[C@H](N)C(=O)O.O.O.[Cl-].[Cl-].[Mn+2]` : provide T₂ value 191

* * *

assay: Paramagnetic relaxation properties in water at 10 MHz (0.15T), RADX spin analyzer; format: physicochemical; details: in water, 10 MHz (0.15T); calculated from T₁ and concentration
Please go through the items and note down their millimolar relaxivity for T₁.
Answers are plain numbers, in mM⁻¹ s⁻¹.

# compound, millimolar relaxivity for T₁ (mM⁻¹ s⁻¹)
records = [
    ("C[C@@H](O)[C@H](N)C(=O)O.C[C@@H](O)[C@H](N)C(=O)O.O.O.[Cl-].[Cl-].[Mn+2]", 9.82),
    ("N[C@@H](CO)C(=O)O.N[C@@H](CO)C(=O)O.O.O.[Cl-].[Cl-].[Mn+2]", 9.19),
    ("CC(C)C[C@H](N)C(=O)O.CC(C)C[C@H](N)C(=O)O.O.O.[Cl-].[Cl-].[Mn+2]", 9.33),
    ("CC(=O)[O-].C[C@H](N)C(=O)O.C[C@H](N)C(=O)O.C[C@H](N)C(=O)O.O.[I-].[Mn+2]", 9.62),
    ("CC(C)[C@H](N)C(=O)O.CC(C)[C@H](N)C(=O)O.O.O.[Cl-].[Cl-].[Mn+2]", 9.12),
]

Could I get millimolar relaxivity for T₁ for every one of these entries?
1. CSCC[C@H](N)C(=O)O.CSCC[C@H](N)C(=O)O.O.O.[Cl-].[Cl-].[Mn+2]
2. NC(=O)C[C@H]([NH3+])C(=O)[O-].NC(=O)C[C@H]([NH3+])C(=O)[O-].O.O.[Cl-].[Cl-].[Mn+2]
3. N=C(N)NCCC[C@H](N)C(=O)O.N=C(N)NCCC[C@H](N)C(=O)O.O.O.[Cl-].[Cl-].[Mn+2]
4. C[NH2+]CC(=O)[O-].C[NH2+]CC(=O)[O-].O.O.[Cl-].[Cl-].[Mn+2]
5. NCC(=O)O.NCC(=O)O.O.O.[Cl-].[Cl-].[Mn+2]
6. N[C@@H](CC(=O)O)C(=O)O.N[C@@H](CC(=O)O)C(=O)O.O.O.[Cl-].[Cl-].[Mn+2]
7. O.O.O=C(O)[C@@H]1CCCN1.O=C(O)[C@@H]1CCCN1.[Cl-].[Cl-].[Mn+2]

1. 9.73
2. 9.09
3. 2.96
4. 9.19
5. 9.27
6. 9.58
7. 9.63

Take each entry in turn and give its millimolar relaxivity for T₁.
1. NCC(=O)O.N[C@@H](CO)C(=O)O.N[C@@H](Cc1c[nH]cn1)C(=O)O.O=C(O)[C@@H]1CCCN1.O=S(=O)([O-])[O-].[Mn+2]
2. N[C@@H](Cc1ccccc1)C(=O)O.N[C@@H](Cc1ccccc1)C(=O)O.O.O.[Cl-].[Cl-].[Mn+2]
3. NC(CO)C(=O)O.O.O.O.O=C([O-])C(O)C(O)C(O)C(O)CO.O=C([O-])C(O)C(O)C(O)C(O)CO.[Mn+2] (stereo not drawn)

1. 9.71
2. 9.84
3. 9.35
